test: Pharmacokinetic study of compounds on ICR mice; assay type: in vivo; settings: mouse, po; male ICR mice, 10 mg/kg-kg^1 by gavage, plasma; read-out: AUC0-24
Attribute measured: AUC(0-t) (ng·h/mL)

* CP(C)(=O)c1cc(Cl)ccc1Nc1nc(Nc2ccc3c(c2)CC[C@@H](N2CCCC2)CC3)ncc1Cl [Example 52] | 1150
* CNC(=O)c1cc(F)ccc1Nc1nc(Nc2ccc3c(c2)CC[C@@H](N2CCCC2)CC3)ncc1Cl [Example 19] | 3540
* Cc1ccc(Nc2nc(Nc3ccc4c(c3)CC[C@@H](N3CCCC3)CC4)ncc2Cl)c(P(C)(C)=O)c1 [Example 53] | 2200

* * *

biological target: AXL kinase (Homo sapiens); construct: purchased Carna 08-107; assay: Inhibitory activity of compound against AXL kinase (HTRF KinEASE); assay type: biochemical; conditions: AXL enzyme (Carna, 08-107), ATP 15 μM; "<" means below detection limit of the test
Sequence (P30530 473-894 limits assumed): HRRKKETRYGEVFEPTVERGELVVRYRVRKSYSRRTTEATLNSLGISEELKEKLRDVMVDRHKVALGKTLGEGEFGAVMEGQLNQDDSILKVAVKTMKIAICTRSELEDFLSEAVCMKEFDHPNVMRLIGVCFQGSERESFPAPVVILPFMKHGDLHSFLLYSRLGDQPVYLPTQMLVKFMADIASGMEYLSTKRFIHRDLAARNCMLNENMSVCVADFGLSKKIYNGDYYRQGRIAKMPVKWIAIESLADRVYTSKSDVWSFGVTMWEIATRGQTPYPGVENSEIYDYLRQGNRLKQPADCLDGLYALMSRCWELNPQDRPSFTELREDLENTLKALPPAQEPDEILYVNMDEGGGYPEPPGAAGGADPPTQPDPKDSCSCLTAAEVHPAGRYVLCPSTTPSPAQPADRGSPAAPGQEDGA
Attribute measured: IC50 (nM)

* CNC(=O)c1cc(OC)ccc1Nc1nc(Nc2ccc3c(c2)CC[C@@H](N2CCCC2)CC3)ncc1Cl | 0.18
* CP(C)(=O)c1cc(Cl)ccc1Nc1nc(Nc2ccc3c(c2)CC[C@@H](N2CCCC2)CC3)ncc1Cl | 1.06
* [2H]C([2H])([2H])P(=O)(c1cc(F)ccc1Nc1nc(Nc2ccc3c(c2)CC[C@@H](N2CCCC2)CC3)ncc1Cl)C([2H])([2H])[2H] | 6.27
* COCCNC(=O)c1ccccc1Nc1nc(Nc2ccc3c(c2)CC[C@@H](N2CCCC2)CC3)ncc1Cl | 6.24
* CS(=N)(=O)c1ccccc1Nc1nc(Nc2ccc3c(c2)CC[C@@H](N2CCCC2)CC3)ncc1Cl (some centres unmarked) | 2.16
* Cc1c(F)ccc(Nc2nc(Nc3ccc4c(c3)CC[C@@H](N3CCCC3)CC4)ncc2Cl)c1P(C)(C)=O | 1.35
* CP(C)(=O)c1c(Nc2nc(Nc3ccc4c(c3)CC[C@@H](N3CCCC3)CC4)ncc2Cl)ccc(F)c1Cl | 2.36
* CN(C)S(=O)(=O)c1ccc(Nc2nc(Nc3ccc4c(c3)CC[C@@H](N3CCCC3)CC4)ncc2Cl)cc1 | 23.6
* CP(C)(=O)c1cc(O)ccc1Nc1nc(Nc2ccc3c(c2)CC[C@@H](N2CCCC2)CC3)ncc1Cl | 2.38
* CN(C)S(=O)(=O)c1ccccc1Nc1nc(Nc2ccc3c(c2)CC[C@@H](N2CCCC2)CC3)ncc1Cl | 0.33
* COC(C)(C)c1ccc(Nc2nc(Nc3ccc4c(c3)CC[C@@H](N3CCCC3)CC4)ncc2Cl)c(P(C)(C)=O)c1 | 2.53
* [2H]c1ccc(Nc2nc(Nc3ccc4c(c3)CC[C@@H](N3CCCC3)CC4)ncc2Cl)c(P(C)(C)=O)c1 | 1.81
* Clc1cnc(Nc2ccc3c(c2)CC[C@@H](N2CCCC2)CC3)nc1Nc1ccccc1-c1ncn[nH]1 | 0.62
* COCc1ccc(Nc2nc(Nc3ccc4c(c3)CCC(N3CC5CC3C5)CC4)ncc2Cl)c(P(C)(C)=O)c1 (single isomer, unassigned) [Example 116 Isomer 116-2] | 96.8

* * *

assay: Pharmacokinetic study of compounds on ICR mice; type: in vivo; conditions: mouse, po; male ICR mice, 10 mg-kg^1 by gavage, plasma
Attribute measured: half-life

• Clc1cnc(Nc2ccc3c(c2)CC[C@@H](N2CCCC2)CC3)nc1Nc1ccccc1-c1ncc[nH]1 [Example 18] = 3.03 h
• CP(C)(=O)c1cc(F)ccc1Nc1nc(Nc2ccc3c(c2)CC[C@@H](N2CCCC2)CC3)ncc1Cl [Example 51] = 2.17 h
• CNC(=O)c1cc(F)ccc1Nc1nc(Nc2ccc3c(c2)CC[C@@H](N2CCCC2)CC3)ncc1Cl [Example 19] = 3.05 h
• CP(C)(=O)c1c(Nc2nc(Nc3ccc4c(c3)CC[C@@H](N3CCCC3)CC4)ncc2Cl)ccc2nccnc12 [Example 47] = 2.06 h
• Cc1ccc(Nc2nc(Nc3ccc4c(c3)CC[C@@H](N3CCCC3)CC4)ncc2Cl)c(P(C)(C)=O)c1 [Example 53] = 1.81 h
• CP(C)(=O)c1cc(Cl)ccc1Nc1nc(Nc2ccc3c(c2)CC[C@@H](N2CCCC2)CC3)ncc1Cl [Example 52] = 2.42 h
• CP(C)(=O)c1ccccc1Nc1nc(Nc2ccc3c(c2)CC[C@@H](N2CCCC2)CC3)ncc1Cl [Example 10] = 3.33 h

* * *

# reported log10(AUC(0-t)); entries follow
assay: Pharmacokinetic study of compounds on ICR mice; assay type: in vivo; conditions: mouse, po; male ICR mice, 10 mg/kg-kg^1 by gavage, plasma; read-out: AUC0-24
Attribute measured: log10(AUC(0-t)) (log10 of the value in ng·h/mL)

• CP(C)(=O)c1ccccc1Nc1nc(Nc2ccc3c(c2)CC[C@@H](N2CCCC2)CC3)ncc1Cl = 3.00
• CN1CCN(Cc2ccc(Nc3ncc(Cl)c(Nc4ccccc4S(=O)(=O)N(C)C)n3)cc2)CC1 [Positive drug 2 (TP0903), TP0903, reference compound] = 1.72
• Clc1cnc(Nc2ccc3c(c2)CC[C@@H](N2CCCC2)CC3)nc1Nc1ccccc1-c1ncc[nH]1 = 3.36
• CP(C)(=O)c1c(Nc2nc(Nc3ccc4c(c3)CC[C@@H](N3CCCC3)CC4)ncc2Cl)ccc2nccnc12 = 2.49
• COCc1ccc(Nc2nc(Nc3ccc4c(c3)CC[C@@H](N3CCCC3)CC4)ncc2Cl)c(P(C)(C)=O)c1 = 3.11
• CN1Cc2cccc(Nc3nc(Nc4ccc5c(c4)CC[C@@H](N4CCCC4)CC5)ncc3Cl)c2C1=O = 3.48
• CP(C)(=O)c1cc(F)ccc1Nc1nc(Nc2ccc3c(c2)CC[C@@H](N2CCCC2)CC3)ncc1Cl = 3.03

* * *

experiment: Pharmacokinetic study of compounds on ICR mice; assay type: in vivo; conditions: mouse, po; male ICR mice, 10 mg-kg^1 by gavage, plasma
Criterion: Cmax meeting or surpassing 300 ng/mL. Met: yes (1). Not met: no (0).

* CP(C)(=O)c1cc(Cl)ccc1Nc1nc(Nc2ccc3c(c2)CC[C@@H](N2CCCC2)CC3)ncc1Cl | yes (1)
* COCc1ccc(Nc2nc(Nc3ccc4c(c3)CC[C@@H](N3CCCC3)CC4)ncc2Cl)c(P(C)(C)=O)c1 | yes (1)
* Cc1ccc(Nc2nc(Nc3ccc4c(c3)CC[C@@H](N3CCCC3)CC4)ncc2Cl)c(P(C)(C)=O)c1 | yes (1)
* CN1CCN(Cc2ccc(Nc3ncc(Cl)c(Nc4ccccc4S(=O)(=O)N(C)C)n3)cc2)CC1 [Positive drug 2 (TP0903), TP0903, reference compound] | no (0)
* CP(C)(=O)c1cc(F)ccc1Nc1nc(Nc2ccc3c(c2)CC[C@@H](N2CCCC2)CC3)ncc1Cl | yes (1)
* Clc1cnc(Nc2ccc3c(c2)CC[C@@H](N2CCCC2)CC3)nc1Nc1ccccc1-c1ncc[nH]1 | no (0)
* CN1Cc2cccc(Nc3nc(Nc4ccc5c(c4)CC[C@@H](N4CCCC4)CC5)ncc3Cl)c2C1=O | no (0)

* * *

Assay: Pharmacokinetic study of compounds on ICR mice
Assay type: in vivo
Conditions: mouse, po; male ICR mice, 10 mg-kg^1 by gavage, plasma
Experimental: Each compound is prepared with DMSO into a 10 mg/mL stock solution. Preparation of mixed solvent: Tween 80: PEG400: Water=1:9:90 (v/v/v) […] Male 6-10 week old ICR mice (sourced from: Beijing Vital River Laboratory Animal Technology Co., Ltd.) are taken, 6 mice in each group. […] The blood drug concentration is determined by an LC-MS/MS method. […]
# reported log10 Tmax; entries follow
Attribute measured: log10 Tmax (log10 of the value in h)

* CN1Cc2cccc(Nc3nc(Nc4ccc5c(c4)CC[C@@H](N4CCCC4)CC5)ncc3Cl)c2C1=O | 0.90
* CP(C)(=O)c1cc(F)ccc1Nc1nc(Nc2ccc3c(c2)CC[C@@H](N2CCCC2)CC3)ncc1Cl | -0.30
* Clc1cnc(Nc2ccc3c(c2)CC[C@@H](N2CCCC2)CC3)nc1Nc1ccccc1-c1ncc[nH]1 | 0.30
* Cc1ccc(Nc2nc(Nc3ccc4c(c3)CC[C@@H](N3CCCC3)CC4)ncc2Cl)c(P(C)(C)=O)c1 | 0.00
* CP(C)(=O)c1cc(Cl)ccc1Nc1nc(Nc2ccc3c(c2)CC[C@@H](N2CCCC2)CC3)ncc1Cl | -0.30
* CP(C)(=O)c1c(Nc2nc(Nc3ccc4c(c3)CC[C@@H](N3CCCC3)CC4)ncc2Cl)ccc2nccnc12 | 0.00
* COCc1ccc(Nc2nc(Nc3ccc4c(c3)CC[C@@H](N3CCCC3)CC4)ncc2Cl)c(P(C)(C)=O)c1 | 0.34
* CNC(=O)c1cc(F)ccc1Nc1nc(Nc2ccc3c(c2)CC[C@@H](N2CCCC2)CC3)ncc1Cl | 0.00
* CP(C)(=O)c1ccccc1Nc1nc(Nc2ccc3c(c2)CC[C@@H](N2CCCC2)CC3)ncc1Cl | -0.60
* CN1CCN(Cc2ccc(Nc3ncc(Cl)c(Nc4ccccc4S(=O)(=O)N(C)C)n3)cc2)CC1 [Positive drug 2 (TP0903), TP0903, reference compound] | -0.60
